# IC50 (µM) for inhibiting thermal aggregation of BSA listing for each entry below
molecular target: BSA (UniProt P02769 25-607); assay: cell-based or functional assay
Sequence (P02769 25-607 limits assumed): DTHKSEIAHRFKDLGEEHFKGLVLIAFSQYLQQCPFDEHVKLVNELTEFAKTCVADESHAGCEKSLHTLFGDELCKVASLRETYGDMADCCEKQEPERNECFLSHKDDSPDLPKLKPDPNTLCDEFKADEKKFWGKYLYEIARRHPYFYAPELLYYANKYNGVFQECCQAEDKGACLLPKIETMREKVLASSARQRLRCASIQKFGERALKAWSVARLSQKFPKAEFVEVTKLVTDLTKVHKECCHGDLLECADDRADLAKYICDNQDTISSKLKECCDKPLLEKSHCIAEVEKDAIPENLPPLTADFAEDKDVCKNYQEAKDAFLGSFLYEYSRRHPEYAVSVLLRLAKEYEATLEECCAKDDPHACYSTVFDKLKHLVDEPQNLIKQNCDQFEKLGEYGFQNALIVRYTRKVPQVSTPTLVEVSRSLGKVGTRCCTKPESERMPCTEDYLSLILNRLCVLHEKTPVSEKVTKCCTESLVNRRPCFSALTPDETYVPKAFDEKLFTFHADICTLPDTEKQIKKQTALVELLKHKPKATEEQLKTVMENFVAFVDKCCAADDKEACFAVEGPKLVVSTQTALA
Give the value, in units of µM, as a plain number.

Past entries and their recorded results:
CF-10 (SEQ ID NO: 30) (peptide) SEKKQPVDLGLLEEDDEFEEFPAEDWAGLDEDEDAHVWEDNWDDDNVEDDFSNQLRATVLLMILVCETPYGCYVLHQKGRMCSAFLCA; 13.8
CF-30 (SEQ ID NO: 47) (peptide) SDADEFDDDNSVWGWEDDEVEPNDAFQPLGDVRANEELDEKDHKLDEEADLQWEFELTVLLMILVCETPYGCYVLHQKGRMCSAFLCC; 21.3
CF-39 (SEQ ID NO: 52) (peptide) SEKKQPVDLGLLEEDDEFEEFPAEDWAGLDEDESAHVWEDNWDDDNVTSDFSNQLRATVLLMILVCETPYGCYVLHQKGRMCSAFLCC; 10.5

Consider the record given below.
Value lookup for IC50 (µM) for inhibiting thermal aggregation of BSA; key = CF-38 (SEQ ID NO: 51) (peptide) STKKQPVDLGLLEEDDEFEEFPAESWAGLDEDESAHVWEDNWDDDNVTSDFSNQLRATVLLMILVCETPYGCYVLHQKGRMCSAFLCC 13.8

Provenance of the data: patent US20240360183A1
